meta.source: patent US20220175942A1

Biological target: CCL14_HUMAN
Assay: BLI
pKd: −log10 of the molar value.
Threshold rule: pKd greater than or equal to 9 is met; below that, not met.

1. P1181_AMBMA (other) EEREDDNDYGGGCPFVVLGNGTHAKPAGCSHLCNGAPETLDNIECYNVTEEVAKRMTPDIPYTCWLGWCSKGECKRDNRTEVCYRGSERE : not met
2. P1180_AMBTR (other) EEPKDGYDYTEGCPFVVLGNGTHAKPAGCSHLCNGAPETLDDNMECYNVTEEVAKRMTPDIPYTCWLGWCSKGECKRDNRTEVCYRGSERE : not met
3. P991_AMBCA (other) ENGEGTTQPDYDNSTDYYNYEDFKCTCPAPHLNNTNGTVMKPIGCYYTCNVTRCTAPDTYPCYNLTEHQAKNLTTSPTTLCAVGNCDHGICVPNGTKELCFKAPNLEE : met

Could you now consider this next binder?
Quick check: does P672_RHIPU (other) VCEVSEQEGVGEDNATEDEDYEDFFKPVTCYFANSTVGPLRPPNCTVVCTNNTAWWNDTKSDGGHCYSEYRPEKRTHSREIYNCTIGVCGNGTCIANHTYADCW have pKd greater than or equal to 9?
not met
